Quick list: CRC/CRC0 ratio at 50 uM (fold over control, higher = inhibition) per entry.
Experiment: mtPTP inhibition measured by calcium retention, dose response, biochemical, dry powder samples, uHTS hits, isolated mitochondria (AID 720728)
Settings: calcium retention capacity
The source made the active and inactive calls. The rule behind the calls is not given here.
READOUT: CRC/CRC0 ratio at 50 uM (fold over control, higher = inhibition)

* CCOC(=O)N1CCN(S(=O)(=O)c2ccc(C(=O)N(CCCN(C)C)c3nc4c(C)c(C)ccc4s3)cc2)CC1 | 1.51 fold (active)
* C=CCNCCOCCOc1ccc(Cl)cc1C(C)(C)C | 1.81 fold (active)
* COc1ccc(-n2cc(CNC3CCN(C)CC3)c(-c3cccc(F)c3)n2)cc1 | 1.5 fold (active)
* CN1CCC[C@@H]1CCO[C@](C)(c1ccccc1)c1ccc(Cl)cc1 | 1.81 fold (active)
* Cc1ccc2nc(N(CCCN(C)C)C(=O)CCc3ccccc3)sc2c1 | 1.61 fold (active)
* CNCCC=C1c2ccccc2CCc2ccccc21 | 1.66 fold (active)
* COC(=O)c1c(NC(=O)C2CCCCC2)sc2c1CC(C)(C)NC2(C)C | 2.05 fold (active)
* O=C(CC1NCCc2ccccc21)Nc1ccc(Cl)cc1 (stereo unspecified) | 1.65 fold (active)
* N#Cc1c(NCCN)nc(-c2ccco2)c2c1CCCC2 | 1.81 fold (active)
* CNCCCC12CCC(c3ccccc31)c1ccccc12 | 1.82 fold (active)
* N=c1sccn1CC(=O)Nc1cccc(Oc2ccccc2)c1 | 1.91 fold (active)

These measurements were taken from PubChem BioAssay AID720728.
